Just for reference, the supplement of paper PMC6757056 is where these values come from.

Could you please report measured normalized RNA/DNA level with ligand (log10) for the items listed next?
B1: library; a variant is named by its letters at N, in order (parent)
chain: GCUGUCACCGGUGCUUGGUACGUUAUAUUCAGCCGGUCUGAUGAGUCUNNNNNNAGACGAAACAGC

- Variants of: B1
- Test Method Notes: normalized RNA/DNA level with ligand (relative to sTRSVctl = 100) (log10 (% of sTRSVctl)); HEK293T overexpressing SLC46A1; ligand concentration (+) RNA-Seq: 6 mM; higher = less ribozyme self-cleavage, higher mRNA level
- Stated Conditions: with (6R,S)-folinic acid; ligand present: yes
One number for each entry.

Changes: GCACAG
Value Measured: 2
--
Changes: AAGAAG
Value Measured: 2
--
Changes: GGUCCC
Value Measured: 2.01
--
Changes: AAACCC
Value Measured: 2.03
--
Changes: GGGGGG
Value Measured: 2.04

Could I get normalized RNA/DNA level with ligand (log10) for every one of these entries?
1. CACAGG
2. UAUCGC
3. GCGCCG
4. GAAGUG

stdout:
1: 2; 2: 2.03; 3: 2.05; 4: 1.99

Could I get normalized RNA/DNA level with ligand (log10) for every one of these entries?
1. AGAAAC
2. CGAAGU

stdout:
2.01
2

Could I get normalized RNA/DNA level with ligand (log10) for every one of these entries?
1. UGGGAC
2. GCGCCA
3. ACGCAG
4. UCGUUC
5. UAUUAU

stdout:
1: 2.02; 2: 2.03; 3: 2.01; 4: 2.01; 5: 1.99
